OD450 overview
Target: Peptide 5: Biotin-…-[Tyr(PC)]-acid
Sequence (peptide, as listed by the source): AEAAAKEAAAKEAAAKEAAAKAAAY
Assay: scFv ELISA
Answer in OD450, number only, no unit symbol.

binder | unit_text | OD450
PcOxP_DB03_B11 (scFv, V domains shown, scFv in periplasmic extract) VH: EVQLLESGGGLVQPGGSLRLSCAASGFTFSDFYVEWVRQAPGKGLEWVAASRNKANTYTTEYADSVKGRFTISRDNSKNTLYLQMNSLRAEDTAVYYCARDYYGSSYWYFDVWGQGTLVTVSS VL: DIVMTQSPDSLAVSLGERATINCTASESLYSSKHKVHYLAWYQQKPGQPPKLLIYGAQNRYIGVPDRFSGSGSGTDFTLTISSLQAEDVAVYYCGQFYSYPLTFGGGTKVEIK | OD450 | 0.72

Turning to the following binder.
I have this binder here, PcOxP_DB01_F01 (scFv, V domains shown, scFv in periplasmic extract) VH: EVQLLESGGGLVQPGGSLRLSCAASGFPFSDFYMEWVRQAPGKGLEWVAASRNKANDYTTEYADSVKGRFTISRDNSKNTLYLQMNSLRAEDTAVYYCARDYYGSPYWYFDVWGQGTLVTVSS VL: DIVMTQSPDSLAVSLGERATINCTASESVYSSKNKKHYLAWYQQKPGQPPKLLIYGASNRYIGVPDRFSGSGSGTDFTLTISSLQAEDVAVYYCAQFYTYPLTFGGGTKVEIK , and I need its recorded OD450.
1.78
